test system: NCI/ADR-RES ovarian; assay: NCI-60 one-dose screen, 48 h (100 = growth as untreated, 0 = no growth, -100 = all killed); conditions: 10 µM
About 83,000 compounds went through this panel and 20% of them were active in at least one assay; those are over-represented in the sample as a whole.
quantity-kind: growth (%)
Respond numerically; units are % and should not be typed.

Answered examples (5):
- compound: "COc1ccc(Oc2c(I)cc(CC(NC(C)=O)C(=O)O)cc2I)cc1 (stereo unspecified)"
  assayed-target: "NCI/ADR-RES ovarian"
  quantity-kind: "growth"
  endpoint-value: 62.4
- compound: "COCCCNC(=O)c1nnn2c1nc(N)c1cc(Cl)ccc12"
  assayed-target: "NCI/ADR-RES ovarian"
  quantity-kind: "growth"
  endpoint-value: 93.9
- compound: "CC(=O)Nc1cccc(NC(C)=O)n1"
  assayed-target: "NCI/ADR-RES ovarian"
  quantity-kind: "growth"
  endpoint-value: 131
- compound: "CC(=O)OCC(=O)[C@@]1(O)CC[C@H]2[C@@H]3CC[C@@H]4C[C@H](O)CC[C@]4(C)[C@H]3C(=O)C[C@@]21C"
  assayed-target: "NCI/ADR-RES ovarian"
  quantity-kind: "growth"
  endpoint-value: 110
- compound: "O=C(O)c1ccnc(Br)c1"
  assayed-target: "NCI/ADR-RES ovarian"
  quantity-kind: "growth"
  endpoint-value: 111

Would you kindly look at the next entry?
Input `Cc1cc(NC(=O)CSCC(=O)O)no1` . Output growth: 107
